B1: STK38L (parent)
chain: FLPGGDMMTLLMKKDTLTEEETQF

# Variants of: B1
# Assay procedure: protein stability index of a GFP-peptide fusion (GPS, HEK-293T) (PSI 1-6); higher = more stable;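 note: lentivirally expressed fusions sorted by FACS into six bins by GFP to DsRed ratio, PSI derived from sequencing read proportions per bin multiplied by bin number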
# Test parameters: c terminus: a fixed tail appended
Readout type: protein stability index
// no unit string in output, number only

{"Chain": "FLPGGMMMTLLMKKDTLTEEETQF", "protein stability index": 2.54}
{"Chain": "FLPGGDMMTLLMKKDTLTEEETQN", "protein stability index": 2.65}
{"Chain": "FLPGGDMMTLLMKKDTMTEEETQF", "protein stability index": 2.53}
{"Chain": "FDPGGDMMTLLMKKDTLTEEETQF", "protein stability index": 4.38}
{"Chain": "FLPGGDMMTLLMKKDRLTEEETQF", "protein stability index": 2.11}
{"Chain": "FLWGGDMMTLLMKKDTLTEEETQF", "protein stability index": 2.55}

Prompt: Find the recorded protein stability index belonging to FLPGGDMMTLLMKYDTLTEEETQF and report it.
Completion: 2.09

Prompt: Find the recorded protein stability index belonging to FLTGGDMMTLLMKKDTLTEEETQF and report it.
Completion: 2.23

meta.source: the supplement of paper PMC10567573
